We begin with a simple list: items and their reported IC50.
# target-of-assay: Cholinesterase (Homo sapiens)
# Sequence (P06276 whole entry): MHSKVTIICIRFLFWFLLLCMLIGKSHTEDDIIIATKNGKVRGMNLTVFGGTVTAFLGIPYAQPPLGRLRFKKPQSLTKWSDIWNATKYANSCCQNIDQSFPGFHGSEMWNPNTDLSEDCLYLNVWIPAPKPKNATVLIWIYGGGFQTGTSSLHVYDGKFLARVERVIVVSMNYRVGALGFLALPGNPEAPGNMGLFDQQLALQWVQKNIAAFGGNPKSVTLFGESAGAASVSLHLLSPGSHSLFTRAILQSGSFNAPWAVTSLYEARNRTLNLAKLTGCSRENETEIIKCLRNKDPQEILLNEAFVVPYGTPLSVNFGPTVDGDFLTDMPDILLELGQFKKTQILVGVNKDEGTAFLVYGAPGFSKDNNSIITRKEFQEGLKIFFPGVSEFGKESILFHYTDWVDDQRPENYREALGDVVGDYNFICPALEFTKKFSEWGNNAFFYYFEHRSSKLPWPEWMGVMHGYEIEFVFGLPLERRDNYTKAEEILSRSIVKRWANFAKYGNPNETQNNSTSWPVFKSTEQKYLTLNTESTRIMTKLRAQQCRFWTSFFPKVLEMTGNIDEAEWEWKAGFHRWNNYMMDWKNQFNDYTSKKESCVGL
readout-type: IC50 (µM)

> print(dat)
                                   compound  quantitative.result
1  COC(=O)[C@]12COCC[C@@H]3[C@H](c4c1[nH]c1ccccc41)N(C)CC[C@@H]32 [UNDULIFOLINE]                 28.5
2  C=C1c2[nH]c3ccc(OC)cc3c2C2[C@@H](CC)C1CCN2C (some centres not stated)                   24

###

# target-of-assay: Cyclin-dependent kinase 4 (Homo sapiens, UniProt P11802)
# Sequence (P11802 whole entry): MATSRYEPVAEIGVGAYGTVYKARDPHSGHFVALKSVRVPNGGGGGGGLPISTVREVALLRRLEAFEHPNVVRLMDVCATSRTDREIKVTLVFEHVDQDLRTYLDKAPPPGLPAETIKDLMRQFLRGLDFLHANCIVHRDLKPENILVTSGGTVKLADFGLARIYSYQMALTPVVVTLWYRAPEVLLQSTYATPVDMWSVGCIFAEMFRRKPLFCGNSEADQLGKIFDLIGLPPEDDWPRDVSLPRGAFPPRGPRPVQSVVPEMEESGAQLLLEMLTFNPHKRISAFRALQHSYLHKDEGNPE
pIC50: −log10 of the molar value.
readout-type: pIC50

> print(dat)
                  compound.structure.string  quantitative.result
1  C1=C\CCc2cc3c(o2)[C@@H]2N4CCCC/C=C\[C@H]4C[C@@]24CN(CCCC/1)CC[C@@H]34                 4.60

###

# protocol-details: Inhibition of urease (unknown origin)
# Set-up: species or system Homo sapiens
readout-type: IC50

> print(dat)
                  compound.structure.string  readout.type   result
1  C/C=C1\CN2CC[C@@H]1[C@](CO)(C(=O)OC)c1[nH]c3ccccc3c1C2          IC50  32.6 µM
